Data origin, for the record: patent US20240148664A1

# ASSAY INFO: Measurement of particle size, polydispersity index and zeta potential of lipid nanoparticle (Zetasizer)
# Assay type: physicochemical
# STUDY CONDITIONS: lipid nanoparticle containing siRNA; main lipid/DPPC/cholesterol=45/10/45; ultrapure water
# Experimental: 30 μL of each of the dialyzed lipid nanoparticle-containing solutions obtained by the above operation was measured out, 800 μL of ultrapure water was added to dilute the lipid nanoparticle-containing solution, and the diluted preparation solution was used to measure the particle size (nm) and the polydispersity index (PDI) by using a Zetasizer (manufactured by Malvern Panalytical, Zetasizer nano Ultra). The particle size was evaluated by Z-average in ultrapure water. […]
TEST READOUT: PDI

Example results:
CCCCCCCC/C=C\CCCCCCCCC(CCCCCCC/C=C\CCCCCCCC)OC(=O)C(CCC(=O)O)NC(=O)C(N)CCCCN (centres unmarked)
0.147
CCCCCCCC/C=C\CCCCCCCCC(CCCCCCC/C=C\CCCCCCCC)OC(=O)[C@H](CCSC)NC(=O)[C@@H](N)CCCNC(=N)N (some centres unmarked)
0.118
CC/C=C\CCC(CCCCCCCCCCC/C=C\CCCCCCCC)OC(=O)[C@@H](N)CCCCN (some centres unmarked) [Comparative Example 9, reference compound]
0.508
CCCCCCCC/C=C\CCCCCCCCC(CCCCCCC/C=C\CCCCCCCC)OC(=O)C(CCC(=O)O)NC(=O)C(N)CCCNC(=N)N (centres unmarked)
0.099

(P) CCCCCCCC/C=C\CCCCCCCCC(CCCCCCC/C=C\CCCCCCCC)OC(=O)C(CCC(=O)O)NC(=N)N (centres unmarked) [Comparative Example 3, reference compound]
(Q) CCCCC/C=C\C/C=C\CCCCCCCCC(CCCCCCC/C=C\C/C=C\CCCCC)OC(=O)C(NC(=O)C(N)CCCNC(=N)N)C(C)O (centres unmarked)
Which of these two has the smaller recorded PDI: P or Q ? Write the label of whichever entry you select. Q
(Q: 0.095, P: 0.329)

(1) CCCCCCCC/C=C\CCCCCCCCC(CCCCCCC/C=C\CCCCCCCC)OC(=O)C(CC(=O)O)NC(=O)C(N)CCCNC(=N)N (centres unmarked)
(2) CCCCCCCC/C=C\CCCCCCCCC(CCCCCCC/C=C\CCCCCCCC)OC(=O)C(CCC(=O)O)NC(=O)C(N)Cc1c[nH]cn1 (centres unmarked)
(3) CCCCCC/C=C\CCCCCCCCC(CCCCCCC/C=C\CCCCCC)OC(=O)C(N)CCCCN (centres unmarked) [Comparative Example 6, reference compound]
Please rank these compounds by PDI in descending order. Returns: the labels arranged in the requested order. 1, 2, 3

====

# ASSAY INFO: Measurement of particle size, polydispersity index and zeta potential of lipid nanoparticle (Zetasizer)
# Assay type: physicochemical
# STUDY CONDITIONS: lipid nanoparticle containing siRNA; main lipid/DPPC/cholesterol=45/10/45; ultrapure water
TEST READOUT: PDI

Use these answered entries as a reference point.
CC/C=C\CCC(CCCCCCC/C=C\CCCCCC)OC(=O)[C@@H](N)CCCCN (some centres unmarked) [Comparative Example 8, (3Z,15Z)-docosa-3,15-dien-7-yl lysinate, reference compound]
0.187
CCCCC/C=C\CCCC(CC/C=C\CCCCC)OC(=O)C(N)CCCCN (centres unmarked) [Comparative Example 5, (6Z,14Z)-icosa-6,14-dien-10-yl lysinate, reference compound]
0.731
CCCCCCCC/C=C\CCCCCCCCC(CCCCCCC/C=C\CCCCCCCC)OC(=O)[C@@H](N)CCCCN (some centres unmarked) [Comparative Example 4, reference compound]
0.063
CCCCCCCC/C=C\CCCCCCCCCCCCC(CCCCCCCCCCC/C=C\CCCCCCCC)OC(=O)[C@@H](N)CCCCN (some centres unmarked) [Comparative Example 7, reference compound]
0.021
CCCCCCCC/C=C\CCCCCCCCC(CCCCCCC/C=C\CCCCCCCC)OC(=O)C(CC(=O)O)NC(=N)N (centres unmarked) [Comparative Example 2, reference compound]
0.085
CCCCCCCC/C=C\CCCCCCCCC(CCCCCCC/C=C\CCCCCCCC)OC(=O)C(NC(=O)C(N)CCCNC(=N)N)C(C)O (centres unmarked)
0.084

(a) CCCCCCCC/C=C\CCCCCCCCC(CCCCCCC/C=C\CCCCCCCC)OC(=O)C(CO)NC(=O)C(N)CCCNC(=N)N (centres unmarked)
(b) CCCCCCCC/C=C\CCCCCCCCC(CCCCCCC/C=C\CCCCCCCC)OC(=O)C(CC(=O)O)NC(=O)C(N)CCCCN (centres unmarked)
Compare PDI: is it lower for a or for b ? Indicate your choice by writing its label. a
